- TEST TARGET: UniProtKB Q15077
- Sequence (Q15077 whole entry): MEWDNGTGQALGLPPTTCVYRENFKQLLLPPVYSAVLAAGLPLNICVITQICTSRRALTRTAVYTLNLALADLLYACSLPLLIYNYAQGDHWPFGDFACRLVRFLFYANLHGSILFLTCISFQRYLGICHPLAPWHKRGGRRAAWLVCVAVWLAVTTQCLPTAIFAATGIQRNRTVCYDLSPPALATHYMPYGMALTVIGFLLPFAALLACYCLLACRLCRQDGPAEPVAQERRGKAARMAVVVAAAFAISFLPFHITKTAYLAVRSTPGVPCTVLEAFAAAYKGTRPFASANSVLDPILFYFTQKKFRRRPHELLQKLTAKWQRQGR
- ASSAY METHOD TEXT: Agonist activity at human P2Y6 receptor expressed in 1321N1 cells assessed as IP accumulation by SPA
ENDPOINT LABEL: EC50

QUERY: For the compound shown here, O=c1cc(O)n([C@@H]2O[C@H](COP(=O)(O)O)[C@@H](O)[C@H]2O)c(=O)[nH]1 , give the reported EC50.
RESULT: > 100 µM

More entries:
QUERY: Name the reported EC50 value associated with the compound O=c1[nH]c(=O)n([C@@H]2O[C@H](COP(=O)(O)O)[C@@H](O)[C@H]2O)cc1Br
RESULT: > 1 µM

QUERY: Entry under review: CCCc1cc(=O)n([C@@H]2O[C@H](COP(=O)(O)OP(=O)(O)OP(=O)(O)O)[C@@H](O)[C@H]2O)c(=O)[nH]1 . Reported EC50?
RESULT: > 100 µM

QUERY: I would be grateful if you could share the reported EC50 for CCCc1cc(=O)n([C@@H]2O[C@H](COP(=O)(O)OP(=O)(O)OP(=O)(O)O)[C@H]3OP(=O)(O)O[C@H]32)c(=O)[nH]1 .
RESULT: > 100 µM

###

- TEST TARGET: P2Y purinoceptor 2 (Homo sapiens)
- ASSAY METHOD TEXT: Agonist activity at human P2Y2 receptor expressed in 1321N1 cells assessed as IP accumulation by SPA at 100 uM
- Type: functional, cell-based
ENDPOINT LABEL: Activity (%)

QUERY: // Activity lookup, key: O=C(Cn1c(=O)ccn([C@@H]2O[C@H](COP(=O)(O)OP(=O)(O)OP(=O)(O)O)[C@@H](O)[C@H]2O)c1=O)c1ccccc1
RESULT: 103

P. O=c1ccn([C@@H]2O[C@H](COP(=O)(O)OP(=O)(O)O)[C@@H](O)[C@H]2O)c(=S)[nH]1
Q. Cn1c(=O)ccn([C@@H]2O[C@H](COP(=O)(O)O)[C@@H](O)[C@H]2O)c1=O
R. CCCc1cc(=O)n([C@@H]2O[C@H](COP(=O)(O)O)[C@@H](O)[C@H]2O)c(=O)[nH]1
QUERY: Order these by Activity, descending, and give the full ranking. Please list each label once, in the requested order.
RESULT: P, Q, R

###

- TEST TARGET: UniProt:Q15077
- ASSAY METHOD TEXT: Agonist activity at human P2Y6 receptor expressed in 1321N1 cells assessed as IP accumulation by SPA at 1 uM
- Format: functional, cell-based
ENDPOINT LABEL: Activity (%)

QUERY: Entry under review: Cn1c(=O)ccn([C@@H]2O[C@H](COP(=O)(O)O)[C@@H](O)[C@H]2O)c1=O . Reported Activity?
RESULT: 0

a. CCCc1cc(=O)n([C@@H]2O[C@H](COP(=O)(O)OP(=O)(O)OP(=O)(O)O)[C@@H](O)[C@H]2O)c(=O)[nH]1
b. O=c1ccn([C@@H]2O[C@H](COP(=O)(O)OP(=O)(O)OP(=O)(O)O)[C@@H](O)[C@H]2O)c(=S)[nH]1
QUERY: Just curious, which one has the larger Activity reading, a or b ? Response format: the label of the selected entry.
RESULT: b

###

- TEST TARGET: P2Y purinoceptor 4 (Homo sapiens, UniProt P51582)
- Sequence (P51582 whole entry): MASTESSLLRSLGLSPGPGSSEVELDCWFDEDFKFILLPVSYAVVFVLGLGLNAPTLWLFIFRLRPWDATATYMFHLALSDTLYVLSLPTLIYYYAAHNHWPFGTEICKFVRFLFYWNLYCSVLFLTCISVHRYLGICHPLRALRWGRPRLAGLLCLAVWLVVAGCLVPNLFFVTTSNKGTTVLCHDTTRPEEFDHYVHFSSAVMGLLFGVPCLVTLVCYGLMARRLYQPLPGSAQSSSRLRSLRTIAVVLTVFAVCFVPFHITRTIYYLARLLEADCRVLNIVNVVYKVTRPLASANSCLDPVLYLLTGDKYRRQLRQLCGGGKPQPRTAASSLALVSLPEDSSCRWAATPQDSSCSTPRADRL
- ASSAY METHOD TEXT: Agonist activity at human P2Y4 receptor expressed in 1321N1 cells assessed as IP accumulation by SPA at 100 uM
- Format: functional, cell-based
ENDPOINT LABEL: Activity (%)

Some solved cases for reference:
QUERY: Give P2Y purinoceptor 4 (Homo sapiens, UniProt P51582) Activity for CCCc1cc(=O)n([C@@H]2O[C@H](COP(=O)(O)OP(=O)(O)OP(=O)(O)O)[C@H]3OP(=O)(O)O[C@H]32)c(=O)[nH]1
RESULT: 1

QUERY: Which measured Activity belongs to CCCc1cc(=O)n([C@@H]2O[C@H](COP(=O)(O)OP(=O)(O)O)[C@@H](O)[C@H]2O)c(=O)[nH]1 , tested on P2Y purinoceptor 4 (Homo sapiens, UniProt P51582)?
RESULT: 0

QUERY: What Activity appears in the records for this molecule with P2Y purinoceptor 4 (Homo sapiens, UniProt P51582)? Cc1cc(=O)n([C@@H]2O[C@H](COP(=O)(O)OP(=O)(O)OP(=O)(O)O)[C@@H](O)[C@H]2O)c(=O)[nH]1
RESULT: 29

QUERY: Form field: Activity recorded for Cn1c(=O)ccn([C@@H]2O[C@H](COP(=O)(O)OP(=O)(O)O)[C@@H](O)[C@H]2O)c1=O with P2Y purinoceptor 4 (Homo sapiens, UniProt P51582) (enter value)
RESULT: 0

1. Cn1c(=O)ccn([C@@H]2O[C@H](COP(=O)(O)O)[C@@H](O)[C@H]2O)c1=O
2. CCCc1cc(=O)n([C@@H]2O[C@H](COP(=O)(O)O)[C@@H](O)[C@H]2O)c(=O)[nH]1
3. O=c1ccn([C@@H]2O[C@H](COP(=O)(O)O)[C@@H](O)[C@H]2O)c(=S)[nH]1
QUERY: Arrange the 3 molecules by rising Activity, starting with the smallest. Present the labels in the sequence the task asks for.
RESULT: 3, 1, 2
(3: 2%, 1: 3%, 2: 5%)

###

Each entry below carries its recorded pEC50.
- TEST TARGET: P2Y purinoceptor 2 (Homo sapiens, UniProt P41231)
- Sequence (P41231 whole entry): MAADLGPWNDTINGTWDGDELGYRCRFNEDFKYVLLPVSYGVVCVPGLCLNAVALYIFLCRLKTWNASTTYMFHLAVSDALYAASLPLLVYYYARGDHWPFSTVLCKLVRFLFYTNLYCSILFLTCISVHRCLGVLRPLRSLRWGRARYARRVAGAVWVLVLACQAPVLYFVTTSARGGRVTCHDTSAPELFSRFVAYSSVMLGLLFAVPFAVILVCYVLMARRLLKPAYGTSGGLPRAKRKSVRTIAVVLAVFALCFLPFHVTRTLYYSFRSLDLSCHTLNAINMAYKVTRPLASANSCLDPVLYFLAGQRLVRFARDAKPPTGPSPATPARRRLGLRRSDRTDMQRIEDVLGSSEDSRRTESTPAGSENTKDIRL
- ASSAY METHOD TEXT: Agonist activity at human P2Y2 receptor expressed in 1321N1 cells assessed as IP accumulation by SPA
pEC50: −log10 of the molar value.

The examples below pair each entry with its known result.
QUERY: Given the compound Cn1c(=O)ccn([C@@H]2O[C@H](COP(=O)(O)OP(=O)(O)O)[C@@H](O)[C@H]2O)c1=O , what is its reported pEC50?
RESULT: < 6.00

QUERY: What value of measured pEC50 is listed for O=c1ccn([C@@H]2O[C@H](COP(=O)(O)OP(=O)(O)OP(=O)(O)O)[C@@H](O)[C@H]2O)c(=O)[nH]1 [URIDINE TRIPHOSPHATE] ?
RESULT: 7.37

QUERY: Value lookup for pEC50; key = O=c1cc(O)n([C@@H]2O[C@H](COP(=O)(O)OP(=O)(O)OP(=O)(O)O)[C@@H](O)[C@H]2O)c(=O)[nH]1
RESULT: < 6.00

***
QUERY: Which pEC50 value is on record for O=C(Cn1c(=O)ccn([C@@H]2O[C@H](COP(=O)(O)OP(=O)(O)OP(=O)(O)O)[C@@H](O)[C@H]2OP(=O)(O)O)c1=O)c1ccccc1 ?
RESULT: ≥ 6.00

QUERY: Fill in: pEC50 of Cc1cc(=O)n([C@@H]2O[C@H](COP(=O)(O)OP(=O)(O)O)[C@@H](O)[C@H]2O)c(=O)[nH]1 is ___
RESULT: < 6.00

QUERY: # pEC50 lookup, item CCCc1cc(=O)n([C@@H]2O[C@H](COP(=O)(O)O)[C@@H](O)[C@H]2O)c(=O)[nH]1
RESULT: < 4.00

QUERY: Name the recorded pEC50 for Cn1c(=O)ccn([C@@H]2O[C@H](COP(=O)(O)O)[C@@H](O)[C@H]2O)c1=O .
RESULT: < 4.00

###

- TEST TARGET: UniProt:Q15077
- ASSAY METHOD TEXT: Agonist activity at human P2Y6 receptor expressed in 1321N1 cells assessed as IP accumulation by SPA
pEC50: −log10 of the molar value.
ENDPOINT LABEL: pEC50

QUERY: Lookup: pEC50 / UniProt:Q15077 / O=c1[nH]c(=O)n([C@@H]2O[C@H](COP(=O)(O)OP(=O)(O)O)[C@@H](O)[C@H]2O)cc1Br
RESULT: 6.82

I. O=c1[nH]c(=O)n([C@@H]2O[C@H](COP(=O)(O)OP(=O)(O)C(Cl)(Cl)P(=O)(O)O)[C@@H](O)[C@H]2O)cc1Br
II. O=C(Cn1c(=O)ccn([C@@H]2O[C@H](COP(=O)(O)OP(=O)(O)O)[C@@H](O)[C@H]2O)c1=O)c1ccccc1
QUERY: Endpoint returns whichever of I and II has the numerically higher pEC50. Record your answer as the label of the chosen record.
RESULT: II
(II: 7.15, I: 6.92)

###

Catalogue of EC50 readings, one per entry.
- TEST TARGET: P2Y purinoceptor 2 (Homo sapiens, UniProt P41231)
- ASSAY METHOD TEXT: Agonist activity at human P2Y2 receptor expressed in 1321N1 cells assessed as IP accumulation by SPA
- Type: functional, cell-based

Here's what some known entries look like.
QUERY: Sample Cc1cc(=O)n([C@@H]2O[C@H](COP(=O)(O)OP(=O)(O)OP(=O)(O)O)[C@@H](O)[C@H]2O)c(=O)[nH]1 — what was its EC50?
RESULT: > 1000 nM

QUERY: Given CCCc1cc(=O)n([C@@H]2O[C@H](COP(=O)(O)OP(=O)(O)O)[C@@H](O)[C@H]2O)c(=O)[nH]1 , state its recorded EC50.
RESULT: > 100000 nM

QUERY: What value of measured EC50 is listed for O=c1cc(O)n([C@@H]2O[C@H](COP(=O)(O)O)[C@@H](O)[C@H]2O)c(=O)[nH]1 ?
RESULT: > 100000 nM

Turning to the following compound.
QUERY: Would you kindly share the measured EC50 for O=c1ccn([C@@H]2O[C@H](COP(=O)(O)OP(=O)(O)OP(=O)(O)O)[C@@H](O)[C@H]2O)c(=S)[nH]1 ?
RESULT: 50 nM
